PROCEDURE DETAILS: qHTS profiling for inhibitors of Plasmodium falciparum proliferation (AID 504749);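 note: 0% = DMSO vehicle and full inhibition = artemisinin control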
ASSAY SETUP: P. falciparum in erythrocytes, SYBR Green DNA, 72 h; at 28.7 µM (top of the series); parasite line B
Records with an inconclusive call do not appear.
PROPERTY LABEL: activity, negative = inhibition (%)

INSERT INTO measurements (sample_smiles, obs_value) VALUES
  ('NC(=O)C1c2ccccc2CCc2ccccc21', 8.64),
  ('OCC1(CO)COC(C(Cl)(Cl)Cl)OC1', 5.66),
  ('O=C(O)COc1ccc(CCNS(=O)(=O)c2ccccc2)s1', -10.1),
  ('O=C(O)c1ccc(OCCn2ccnc2)cc1', 6.25);

Numbers sourced from PubChem BioAssay (NCATS).
